- target-desc: c-Myc (353–437) monomer (Homo sapiens)
- Sequence (P01106 368-452): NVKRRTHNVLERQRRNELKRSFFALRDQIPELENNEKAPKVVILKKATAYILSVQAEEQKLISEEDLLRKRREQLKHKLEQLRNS
value-kind: pKd
Give bare numbers, as −log10 of the molar value.

>  <compound>
CCc1ccc(N2CC(C(=O)OC)CC2=O)cc1 (stereo not shown) [compound 3]

>  <target-desc>
c-Myc (353–437) monomer (Homo sapiens)

>  <recorded-value>
4.40

$$$$
>  <compound>
CCc1ccc(OCC(=O)Nc2ccc(C)cc2Br)cc1 [compound 5]

>  <target-desc>
c-Myc (353–437) monomer (Homo sapiens)

>  <recorded-value>
4.15

$$$$
>  <compound>
O=C(CCN1C(=O)c2ccccc2C1=O)N1CCCCC1 [compound 2]

>  <target-desc>
c-Myc (353–437) monomer (Homo sapiens)

>  <recorded-value>
5.60

$$$$

Then this compound:
Reported pKd, compound CC(C)c1ccc(OCC(=O)Nc2nc3ccccc3s2)cc1 [compound 4] : ____
4.74

---

Task for the reader: assign each of the following compounds its reported Kd.
- target-desc: c-Myc-Max(S) heterodimer (Homo sapiens)
- Sequence (P01106 368-452, one chain of several): as the sequence (P01106 368-452) above
- assay-method-text: Circular dichroism assay of c-Myc-Max dimer disruption
Give bare numbers, in µM.

>  <compound>
CC(C)c1ccc(OCC(=O)Nc2nc3ccccc3s2)cc1 [compound 4]

>  <Kd (µM)>
19

$$$$
>  <compound>
CCc1ccc(N2CC(C(=O)OC)CC2=O)cc1 (stereo not shown) [compound 3]

>  <Kd (µM)>
25

$$$$

Would you be so kind as to report Kd for each listed record?
1. CCc1ccc(OCC(=O)Nc2ccc(C)cc2Br)cc1 [compound 5]
2. O=C(CCN1C(=O)c2ccccc2C1=O)N1CCCCC1 [compound 2]

1: 45; 2: 10
